Attribute: fluorescence fold increase
Assay: intrinsic fluorescence of library compounds, ex339/em460 – biochemical, MLSMR library, data from DPM-DC assay, artefact control, profiling panel (AID 709);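 also: signal is the first read of a kinetic run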
Settings: compound autofluorescence, ex339/em460 nm, NADH buffer; at 10 µM; hits give high values
The whole screen tested about 65,000 compounds, of which about 3,600 (5.5%) were called active. This is one part of a sample in which actives are shown more often than they occur.
The answer should be a number; do not append a unit.

Check out these entries, answers already filled in.
compound="CCOC(=O)C1=C(C)OC(N)=C(C(=O)OC)C12C(=O)Nc1ccc(Br)cc12 (stereo unspecified)" reported_value=1.1
compound="CCOC(=O)CC1=C(C(=O)OCC)C2(C(=O)N1)C(C(=O)OC)=C(N)Oc1ccccc12 (stereo unspecified)" reported_value=1.12
compound=COc1ccc(C(=O)CC2C(=O)N(C)C(=O)N(C)C2=O)cc1 reported_value=1.08

Sure, the documented fluorescence fold increase for `CC1=C(C(=O)Nc2ccccc2)SCCO1` is 1.08

Sure, the documented fluorescence fold increase for `COC(=O)COc1cc(C)cc2oc(=O)c3c(c12)CCCC3` is 2.2

Sure, the documented fluorescence fold increase for `Cc1cccc(-n2c(C)nc3cc(C(=O)N4CCC5(CC4)OCCO5)ccc32)c1` is 1.13

Sure, the documented fluorescence fold increase for `CC1(C)C(c2ccccc2)=NC(c2cccnc2)=[N+]1[O-]` is 1.1

Sure, the documented fluorescence fold increase for `O=C(c1cc2nc(-c3ccccc3)cc(-c3ccccc3)n2n1)N1CCC2(CC1)OCCO2` is 2.35

* * *

Assay: intrinsic fluorescence of library compounds, ex339/em460 – biochemical, MLSMR library, data from DPM-DC assay, artefact control, profiling panel (AID 709);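 also: signal is the first read of a kinetic run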
Details: compound autofluorescence, ex339/em460 nm, NADH buffer; at 10 µM
About 3,600 (5.5%) of roughly 65,000 compounds were called active.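 How the source made its calls: active means at 10 µM, mean starting fluorescence two-fold or more over control wells; inactive means the rest.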 The list comes from a sample in which actives are over-represented; it also holds close analogues and randomly drawn compounds.
Returns: one label drawn from True = active, False = inactive

The examples below pair each entry with its known result.
compound=CCOC(=O)c1c(-c2ccccc2)oc2ccc(OC(=O)N(C)C)cc12 label_value=True
compound=CN1CCN(C(=O)COc2ccc(C(C)(C)C)cc2Br)CC1 label_value=False
compound=CCOC(=O)c1c(C)c(C(=O)N2CCC3(CC2)OCCO3)c(C)n1CC label_value=False
compound=COc1ccc(CCn2c(O)c(C=NC3CC3)c(=O)[nH]c2=O)cc1OC label_value=False
compound=N[C@@H](Cc1c[nH]c2ccccc12)c1nnc(SCc2c(F)cccc2Cl)o1 label_value=False
compound=CCc1cccc2c(C#N)cn(CC(=O)N3CCOCC3)c12 label_value=False
compound="CCOC(=O)C(O)(c1ccc(NC(=O)c2ccco2)c(OC)c1)C(F)(F)F (stereo not drawn)" label_value=False

// param item: OC(CNC1CCCCC1)c1ccccc1 (stereo not drawn) ; yields the recorded call False
